# Measured target: T1, IL-1beta (UniProt P01584 117-269)
# T1 construct: also called IL-1β
# Method notes: Biacore
Readout type: fold difference in affinity vs parental (fold)
Number in fold, nothing else.

Q: What value of measured fold difference in affinity vs parental is listed for XPA23 Fab, heavy chain P53S (Fab, V domains shown) VH: EVQLLESGGGLVQPGGSLRLSCAASGFTFSKYFMFWVRQAPGKGLEWVSVISSSGGMTRYADSVKGRFTISRDNSKNTLYLQMNSLRAEDTAVYYCARVGYGGNSDYWGQGTLVTVSS VL: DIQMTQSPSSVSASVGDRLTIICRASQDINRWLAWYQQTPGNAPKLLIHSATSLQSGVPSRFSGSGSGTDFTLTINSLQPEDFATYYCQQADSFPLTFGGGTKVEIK ?
Ans: 0.03

Q: Next binder up: XPA23 Fab, heavy chain P53Q (Fab, V domains shown) VH: EVQLLESGGGLVQPGGSLRLSCAASGFTFSKYFMFWVRQAPGKGLEWVSVISQSGGMTRYADSVKGRFTISRDNSKNTLYLQMNSLRAEDTAVYYCARVGYGGNSDYWGQGTLVTVSS VL: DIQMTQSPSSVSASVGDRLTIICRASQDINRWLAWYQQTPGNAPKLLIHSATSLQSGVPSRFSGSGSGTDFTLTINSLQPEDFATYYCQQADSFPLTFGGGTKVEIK
Ans: 0.03

Q: Input XPA23 Fab, heavy chain F35Y (Fab, V domains shown) VH: EVQLLESGGGLVQPGGSLRLSCAASGFTFSKYFMYWVRQAPGKGLEWVSVISPSGGMTRYADSVKGRFTISRDNSKNTLYLQMNSLRAEDTAVYYCARVGYGGNSDYWGQGTLVTVSS VL: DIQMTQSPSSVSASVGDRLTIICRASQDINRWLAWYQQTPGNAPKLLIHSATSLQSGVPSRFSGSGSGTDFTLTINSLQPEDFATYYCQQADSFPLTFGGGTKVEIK
Ans: 0.85

Q: Now give it for XPA23 Fab, heavy chain I51S (Fab, V domains shown) VH: EVQLLESGGGLVQPGGSLRLSCAASGFTFSKYFMFWVRQAPGKGLEWVSVSSPSGGMTRYADSVKGRFTISRDNSKNTLYLQMNSLRAEDTAVYYCARVGYGGNSDYWGQGTLVTVSS VL: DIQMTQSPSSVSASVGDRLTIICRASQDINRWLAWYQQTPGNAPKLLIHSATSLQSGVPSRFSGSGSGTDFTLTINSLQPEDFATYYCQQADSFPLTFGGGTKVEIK too.
Ans: 0.69

Q: Then XPA23 Fab, heavy chain G56D (Fab, V domains shown) VH: EVQLLESGGGLVQPGGSLRLSCAASGFTFSKYFMFWVRQAPGKGLEWVSVISPSGDMTRYADSVKGRFTISRDNSKNTLYLQMNSLRAEDTAVYYCARVGYGGNSDYWGQGTLVTVSS VL: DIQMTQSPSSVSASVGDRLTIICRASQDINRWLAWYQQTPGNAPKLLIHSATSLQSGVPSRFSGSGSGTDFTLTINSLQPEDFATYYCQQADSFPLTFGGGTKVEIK ?
Ans: 0.05
